# assayedTarget: T1, human IL-18BP (Homo sapiens, UniProt O95998)
# T1 construct: His
# T1 sequence (O95998 31-194): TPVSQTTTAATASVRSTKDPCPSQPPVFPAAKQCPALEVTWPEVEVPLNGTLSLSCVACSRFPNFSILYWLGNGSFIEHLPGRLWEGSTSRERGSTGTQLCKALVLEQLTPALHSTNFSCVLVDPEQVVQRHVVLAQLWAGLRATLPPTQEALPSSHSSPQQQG
# procedureText: IL-18BP binding alphaLISA assay (Example 4, used in Example 22B)
# assayContext: IL-18BP AlphaLISA
readout: Kd

The recorded Kd for entry C178: IL-18 polypeptide: E6K, V11I, C38A, K53A, T63A, C76A, Q103R, C127A (protein) YFGKLKSKLSIIRNLNDQVLFIDQGNRPLFEDMTDSDARDNAPRTIFIISMYADSQPRGMAVAISVKCEKISTLSAENKIISFKEMNPPDNIKDTKSDIIFFRRSVPGHDNKMQFESSSYEGYFLAAEKERDLFKLILKKEDELGDRSIMFTVQNED equals > 2800 nM

The recorded Kd for entry C182: IL-18 polypeptide: E6K, V11I, C38A, K53A, T63A, C76A, C127A, V153Y (protein) YFGKLKSKLSIIRNLNDQVLFIDQGNRPLFEDMTDSDARDNAPRTIFIISMYADSQPRGMAVAISVKCEKISTLSAENKIISFKEMNPPDNIKDTKSDIIFFQRSVPGHDNKMQFESSSYEGYFLAAEKERDLFKLILKKEDELGDRSIMFTYQNED equals > 2800 nM
